Property measured: melting point

Compound | Property measured | Observed measurement
COc1cc(N2CCN(C)CC2)c2oc(C(=O)Nc3ccc(N4CCOCC4)cc3)cc(=O)c2c1 | melting point | 234 to 236 °C

Moving on to the next compound.
Using the record for CCS(=O)(=O)N1CCN(c2ccc(NC(=O)c3cc(=O)c4cc(F)cc(N5CCN(C)CC5)c4o3)cc2)CC1 , report its melting point.
233 to 234 °C

---

Property measured: melting point

Check out these entries, answers already filled in.
Compound | melting point
CN1CCN(c2cccc3c2OC(C(=O)Nc2ccc(N4CCOCC4)cc2)CC3)CC1 (racemic) [Example 75] | 215 to 216 °C
CN1CCN(c2cccc3c(=O)cc(C(=O)Nc4ccc(N5CCOCC5)cc4O)oc23)CC1 [Example 22] | 248.4 to 249.6 °C
CN1CCN(c2cccc3c2OC(C(=O)Nc2ccc(N4CCOCC4)cc2)CC3)CC1 (single isomer, unassigned; (-)) [Example 77] | 205.5 to 207 °C

Using the record for CN1CCN(c2cccc3c(=O)cc(C(=O)Nc4ccc(N5CCOCC5)cc4)oc23)CC1 [Example 1] , report its melting point.
217 to 218 °C (dec.)

Using the record for CN1CCN(c2cccc3c(=O)cc(C(=O)N(C)c4ccc(N5CCOCC5)cc4)oc23)CC1 [Example 25] , report its melting point.
245 to 246.8 °C

Using the record for CN1CCN(c2cccc3c2OC(C(=O)Nc2ccc(N4CCOCC4)cc2)CC3=O)CC1 (single isomer, unassigned) [Example 79] , report its melting point.
216 °C (dec.)

Using the record for CN1CCN(c2cccc3c2OC(C(=O)Nc2ccc(N4CCOCC4)cc2)CC3=O)CC1 (racemic) [Example 78] , report its melting point.
215 to 216 °C

---

# key: entry, value: melting point

Compound | Observed measurement
CCNC(=O)N1CCN(c2ccc(NC(=O)c3cc(=O)c4cc(F)cc(N5CCN(C)CC5)c4o3)cc2)CC1 | 236 to 238 °C
CN1CCN(c2cccc3c2OC(C(=O)Nc2ccc(N4CCOCC4)cc2)CC3=O)CC1 (single isomer, unassigned) [Example 80] | 215 °C (dec.)
COc1cc(N2CCN(C)CC2)c2oc(C(=O)Nc3ccc(N4CCN(C(=O)CCO)CC4)cc3)cc(=O)c2c1 | 195 to 197 °C
CN1CCN(c2cccc3c2OC(C(=O)Nc2ccc(N4CCOCC4)cc2)CC3)CC1 (single isomer, unassigned; (+)) [Example 76] | 206 to 207 °C

Using the record for CN1CCN(c2cc(F)cc3c(=O)cc(C(=O)Nc4ccc(N5CCN(C(=O)CCO)CC5)cc4)oc23)CC1 , report its melting point.
195 to 199 °C
